// provenance: patent US20220204509A1

Each record here notes measured pIC50.
- systemUnderTest: IDH2/R140Q (Homo sapiens, UniProt P48735, R140Q)
- assayComment: Inhibition of mutant IDH2 activity at the cell level (extracellular 2-HG, U87MG overexpressing IDH2/R140Q)
- Assay type: cell-based
- runConditions: U87MG overexpressing IDH2/R140Q; 2-HG in medium after 24 hours of culturing with compound; read-out: IC50
pIC50: −log10 of the molar value.

Below, each entry is followed by its recorded pIC50 result.
# molSmiles, systemUnderTest, observedProperty, observedResult
records = [
    ("c1ccc(Nc2nc(-c3ccccc3)nc3[nH]ccc23)cc1", "IDH2/R140Q (Homo sapiens, UniProt P48735, R140Q)", "pIC50", "< 5.00"),
    ("Cc1cc2c(NC(C)C)nc(-c3ccccc3F)nc2[nH]1", "IDH2/R140Q (Homo sapiens, UniProt P48735, R140Q)", "pIC50", "6.00 to 7.00"),
    ("Cc1cc2c(NC3CC3)nc(-c3ccccc3C)nc2[nH]1", "IDH2/R140Q (Homo sapiens, UniProt P48735, R140Q)", "pIC50", "6.00 to 7.00"),
]

Qu. Which pIC50 is listed for CC(C)n1cnc2c(Nc3ccnc(C(F)(F)F)c3)nc(-c3cccc(C(F)(F)F)n3)nc21 ?
Ans. < 5.00

----------
Each record here notes measured pIC50.
- systemUnderTest: IDH2/R140Q (Homo sapiens, UniProt P48735, R140Q)
- assayComment: Determination of the inhibitory activity of the compounds on IDH2/R140Q (NADPH reduction, resazurin/lipoamide dehydrogenase detection)
- Format: biochemical
- Parameters: purchased Abcam ab198153
- runConditions: IDH2/R140Q inhibitory activity; cells marked (1 h); read-out: IC50
pIC50: −log10 of the molar value.

# molSmiles, observedResult
data = [
    ("Cn1ccc2c(Nc3ccccc3)nc(-c3ccccc3)nc21", "< 5.00"),
]

Qu. Which pIC50 is listed for CC(C)n1cnc2c(-c3ccccc3)nc(Nc3ccccc3)nc21 ?
Ans. < 5.00

Qu. Which pIC50 is listed for CC(C)n1cnc2c(Nc3ccnc(C(F)(F)F)c3)nc(-c3ccccc3)nc21 ?
Ans. < 5.00

----------
- systemUnderTest: IDH2/R140Q (Homo sapiens, UniProt P48735, R140Q)
- Sequence (P48735 40-452 R140Q): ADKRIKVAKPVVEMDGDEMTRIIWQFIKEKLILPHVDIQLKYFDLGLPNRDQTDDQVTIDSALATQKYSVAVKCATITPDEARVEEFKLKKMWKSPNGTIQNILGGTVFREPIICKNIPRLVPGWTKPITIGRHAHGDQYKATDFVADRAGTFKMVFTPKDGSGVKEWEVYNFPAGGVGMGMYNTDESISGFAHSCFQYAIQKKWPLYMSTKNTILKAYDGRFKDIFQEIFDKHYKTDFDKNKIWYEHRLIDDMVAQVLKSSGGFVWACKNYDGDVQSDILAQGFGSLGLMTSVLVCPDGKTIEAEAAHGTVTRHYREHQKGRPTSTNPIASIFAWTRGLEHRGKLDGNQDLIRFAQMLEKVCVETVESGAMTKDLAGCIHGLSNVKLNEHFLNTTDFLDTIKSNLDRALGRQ
- assayComment: Inhibition of mutant IDH2 activity at the cell level (extracellular 2-HG, U87MG overexpressing IDH2/R140Q)
- Format: cell-based
- runConditions: U87MG overexpressing IDH2/R140Q; 2-HG in medium after 24 hours of culturing with compound; read-out: IC50
observedProperty: IC50

Qu. Which IC50 is listed for Cc1cc2c(NC(C)C)nc(-c3cccnc3)nc2[nH]1 [Compound 17] ?
Ans. > 10000 nM

Qu. Which IC50 is listed for Cc1cc2c(NCC(C)C)nc(-c3ccccc3)nc2[nH]1 [Compound 39] ?
Ans. 100 to 1000 nM

Qu. Which IC50 is listed for Cc1cccc(-c2nc(NC3CC3)c3cc(C)[nH]c3n2)c1 [Compound 42] ?
Ans. 100 to 1000 nM

Qu. Which IC50 is listed for Cc1cc2c(Nc3ccccc3)nc(-c3ccccc3F)nc2[nH]1 [Compound 50] ?
Ans. 100 to 1000 nM

Qu. Which IC50 is listed for Cc1cc2c(Nc3ccccc3)nc(-c3ccccc3)nc2[nH]1 [Compound 8] ?
Ans. 1000 to 10000 nM

Qu. Which IC50 is listed for Cc1cc2c(NC3CC3)nc(-c3cccc(F)c3)nc2[nH]1 [Compound 34] ?
Ans. 100 to 1000 nM

Qu. Which IC50 is listed for Cc1cc2c(NC3CC3)nc(-c3ccccc3F)nc2[nH]1 [Compound 28] ?
Ans. < 100 nM

Qu. Which IC50 is listed for CC(C)n1cnc2c(Nc3ccnc(C(F)(F)F)c3)nc(-c3ccccn3)nc21 [Compound 10] ?
Ans. > 10000 nM

Qu. Which IC50 is listed for Cc1cc2c(NC3CCC3)nc(-c3ccccc3F)nc2[nH]1 [Compound 48] ?
Ans. < 100 nM

Qu. Which IC50 is listed for Cc1cc2c(Nc3cccc(F)c3)nc(-c3ccccc3)nc2[nH]1 [Compound 31] ?
Ans. 1000 to 10000 nM

Qu. Which IC50 is listed for Cc1cc2c(-c3ccccc3)nc(Nc3ccccc3)nc2[nH]1 [Compound 7] ?
Ans. 1000 to 10000 nM

Qu. Which IC50 is listed for Cc1cc2c(Nc3ccccc3)nc(Nc3ccccc3)nc2[nH]1 [Compound 22] ?
Ans. 1000 to 10000 nM

Qu. Which IC50 is listed for CC(C)n1cnc2c(Nc3ccnc(C(F)(F)F)c3)nc(-c3ccccc3)nc21 [Compound 3] ?
Ans. > 10000 nM

----------
- systemUnderTest: IDH2/R140Q (Homo sapiens, UniProt P48735, R140Q)
- Sequence (P48735 40-452 R140Q): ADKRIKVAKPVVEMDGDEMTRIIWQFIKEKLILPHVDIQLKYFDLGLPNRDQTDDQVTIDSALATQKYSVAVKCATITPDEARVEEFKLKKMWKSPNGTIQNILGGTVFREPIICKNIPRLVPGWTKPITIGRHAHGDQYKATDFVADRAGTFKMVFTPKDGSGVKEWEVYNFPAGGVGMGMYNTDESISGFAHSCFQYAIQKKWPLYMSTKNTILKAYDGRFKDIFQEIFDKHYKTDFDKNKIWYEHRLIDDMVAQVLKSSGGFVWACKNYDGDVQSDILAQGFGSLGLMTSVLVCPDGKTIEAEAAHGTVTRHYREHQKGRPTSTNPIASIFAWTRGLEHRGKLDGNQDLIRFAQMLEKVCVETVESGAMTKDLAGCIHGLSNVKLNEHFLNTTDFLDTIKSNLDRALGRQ
- assayComment: Determination of the inhibitory activity of the compounds on IDH2/R140Q (NADPH reduction, resazurin/lipoamide dehydrogenase detection)
- Format: biochemical
- Parameters: purchased Abcam ab198153
pIC50: −log10 of the molar value.
observedProperty: pIC50

Qu. Which pIC50 is listed for CC(C)(O)CNc1nc(Nc2ccnc(C(F)(F)F)c2)nc(-c2cccc(C(F)(F)F)n2)n1 [AG-221, Enasidenib, reference compound] ?
Ans. > 7.00

----------
- systemUnderTest: IDH2/R140Q (Homo sapiens, UniProt P48735, R140Q)
- assayComment: Determination of the inhibitory activity of the compounds on IDH2/R140Q (NADPH reduction, resazurin/lipoamide dehydrogenase detection)
- Assay type: biochemical
- Parameters: purchased Abcam ab198153
- runConditions: IDH2/R140Q inhibitory activity; pre-incubated at 25° C. for 16 hours; read-out: IC50
- Protocol: In this example, the inhibitory activity of a compound on IDH2/R140Q was determined by measuring the reduction of the cofactor NADPH. The compound was incubated with IDH2/R140Q and NADPH, and then the reaction was initiated by adding α-KG. […] The production of resorufin was detected to quantify the amount of cofactor NADPH remaining after a specific reaction time. […]
observedProperty: IC50

Below, each entry is followed by its recorded IC50 result.
# molecule, observedResult
measured = [
    ("Cc1cc2c(NC3CCC3)nc(-c3ccccc3F)nc2[nH]1 [Compound 48]", "< 0.1 µM"),
    ("CC(C)Nc1nc(-c2ccccc2)nc2[nH]ccc12 [Compound 32]", "> 10 µM"),
    ("Cc1cc2c(NC3CC3)nc(-c3ccc4ccccc4c3)nc2[nH]1 [Compound 15]", "> 10 µM"),
]

Qu. // map CC(C)Nc1nc(-c2ccccc2)nc2[nH]c(-c3ccccc3)cc12 [Compound 46] to recorded IC50 (system: IDH2/R140Q (Homo sapiens, UniProt P48735, R140Q))
Ans. > 10 µM

Qu. // map Cc1cc2c(NC3CC3)nc(-c3ccccc3C)nc2[nH]1 [Compound 43] to recorded IC50 (system: IDH2/R140Q (Homo sapiens, UniProt P48735, R140Q))
Ans. 1 to 10 µM

Qu. // map Cc1cc2c(NC3CC3)nc(-c3cccc(F)c3)nc2[nH]1 [Compound 34] to recorded IC50 (system: IDH2/R140Q (Homo sapiens, UniProt P48735, R140Q))
Ans. 1 to 10 µM
